# credit: ChEMBL document CHEMBL1201862

Record form. Attribute: AC50. Fill in for each entry.
Biological target: UniProtKB P05177
Sequence (P05177 whole entry): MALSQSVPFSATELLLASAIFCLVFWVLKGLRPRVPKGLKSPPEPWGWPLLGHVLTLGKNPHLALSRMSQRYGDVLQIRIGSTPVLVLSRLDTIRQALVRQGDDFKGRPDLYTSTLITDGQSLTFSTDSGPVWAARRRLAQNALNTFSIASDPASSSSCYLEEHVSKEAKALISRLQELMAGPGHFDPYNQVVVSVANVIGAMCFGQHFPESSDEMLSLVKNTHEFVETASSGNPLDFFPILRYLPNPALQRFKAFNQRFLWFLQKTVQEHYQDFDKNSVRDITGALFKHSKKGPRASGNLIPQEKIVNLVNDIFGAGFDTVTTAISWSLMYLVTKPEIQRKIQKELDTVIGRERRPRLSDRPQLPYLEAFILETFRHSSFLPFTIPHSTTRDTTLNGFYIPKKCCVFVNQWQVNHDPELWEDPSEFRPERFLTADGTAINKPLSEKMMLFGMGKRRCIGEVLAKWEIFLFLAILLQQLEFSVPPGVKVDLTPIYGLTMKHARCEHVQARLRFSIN

Qu. Recorded AC50 of `O=C(O)c1ccc(N2C=[N+]3C(=Nc4ccccc43)C2)cc1` , please.
Ans. 5.01 µM (inconclusive)

Qu. Recorded AC50 of `CCOc1ccc(C(=O)Nc2cccc(-c3nc4cccnc4o3)c2)cc1Cl` , please.
Ans. 5.01 µM (inconclusive)

Qu. Recorded AC50 of CCOC(=O)c1ccc(OC(=O)CCCCCNC(=N)N)cc1 [GABEXATE] , please.
Ans. 15.8 µM (inconclusive)

Qu. Recorded AC50 of `O=C(CSCc1ccccc1Cl)NNC(=S)Nc1ccccc1` , please.
Ans. 15.8 µM (inconclusive)

Qu. Recorded AC50 of `CNC(=O)[C@H](C)[C@H]1C[C@]1(C)[C@H](NC(=O)OCc1ccccc1)c1ccccc1` , please.
Ans. 20 µM (inconclusive)

Qu. Recorded AC50 of CC(=O)c1ccc(NC(=O)C2CC(c3ccc(F)cc3)=NO2)cc1 (stereo not drawn) , please.
Ans. 0.00794 µM (inconclusive)

Qu. Recorded AC50 of `O=C1c2cccnc2C(=O)N1Cc1ccc(F)cc1` , please.
Ans. 17.8 µM (inconclusive)

Qu. Recorded AC50 of `O=C(c1cccc(F)c1)N1CCC2(CCCN(c3ccncc3)C2)CC1` , please.
Ans. 31.6 µM (inconclusive)

Qu. Recorded AC50 of `CN1CCN(c2ncc3nc(-c4cn(C)c5ccccc45)c(=O)n(-c4ccccc4)c3n2)CC1` , please.
Ans. 15.8 µM (inconclusive)

Qu. Recorded AC50 of `Cc1[nH]n(-c2ccccc2)c(=O)c1CCOC(=O)c1cccc(C(F)(F)F)c1` , please.
Ans. 22.4 µM (inconclusive)

Qu. Recorded AC50 of `CCOC(=O)N1CCN(c2c(O)nc3ccc(Cl)cc3c2-c2ccccc2)CC1` , please.
Ans. 0.158 µM (inconclusive)

Qu. Recorded AC50 of `NS(=O)(=O)c1ccc(/N=N\c2cccnc2O)cc1` , please.
Ans. 0.501 µM (inconclusive)

Qu. Recorded AC50 of `COc1cccc(OC)c1/C(O)=C(\C#N)c1nc2ccccc2[nH]1` , please.
Ans. 12.6 µM (inconclusive)

Qu. Recorded AC50 of CCCN1C(=O)C(Cc2nc3ccccc3c(=O)n2C)c2ccccc21 (stereo not drawn) , please.
Ans. 25.1 µM (inconclusive)

Qu. Recorded AC50 of `O=C(N[C@@H](c1ccccc1)[C@@H]1C[C@H]1C(=O)O)OCc1ccccc1` , please.
Ans. 20 µM (inconclusive)

Qu. Recorded AC50 of `COc1ccccc1CNc1ncnc2ccc(-c3ccccc3CN(C)C)cc12` , please.
Ans. 15.8 µM (inconclusive)

Qu. Recorded AC50 of `O=Nc1c(O)n(Cc2ccc(Cl)c(Cl)c2)c2ccccc12` , please.
Ans. 20 µM (inconclusive)

Qu. Recorded AC50 of `COC(=O)[C@@]1(Cc2ccc(F)cc2)[C@H]2c3cc(C(=O)N(C)C)n(Cc4c(CO)ncc(C)c4O)c3C[C@H]2CN1C(=O)c1ccccc1` , please.
Ans. 25.1 µM (inconclusive)

Qu. Recorded AC50 of `c1cncc(-c2cc(-c3cc(-c4cccnc4)[nH]n3)n[nH]2)c1` , please.
Ans. 0.501 µM (inconclusive)

Qu. Recorded AC50 of `COc1cccc2c1C(=O)c1c(O)c3c(c(O)c1C2=O)C[C@@](O)(C(C)=O)C[C@@H]3O[C@H]1C[C@H](N)[C@H](O)[C@H](C)O1` , please.
Ans. 31.6 µM (inconclusive)

Qu. Recorded AC50 of `CCOC(=O)C1=C(C)NC(=O)N[C@@H]1c1coc2cc(C)cc(C)c2c1=O` , please.
Ans. 2.51 µM (inconclusive)

Qu. Recorded AC50 of `CC(C)OC(=O)/C(=C\C=C\c1ccccc1)NC(=O)c1ccccc1` , please.
Ans. 3.55 µM (inconclusive)

Qu. Recorded AC50 of `COc1cccc(C(=O)Nc2ccc(NC(=O)c3ccco3)cn2)c1` , please.
Ans. 25.1 µM (inconclusive)
